# target_or_test_system: Cytochrome P450 26A1 (Homo sapiens)
# Sequence (O43174 whole entry): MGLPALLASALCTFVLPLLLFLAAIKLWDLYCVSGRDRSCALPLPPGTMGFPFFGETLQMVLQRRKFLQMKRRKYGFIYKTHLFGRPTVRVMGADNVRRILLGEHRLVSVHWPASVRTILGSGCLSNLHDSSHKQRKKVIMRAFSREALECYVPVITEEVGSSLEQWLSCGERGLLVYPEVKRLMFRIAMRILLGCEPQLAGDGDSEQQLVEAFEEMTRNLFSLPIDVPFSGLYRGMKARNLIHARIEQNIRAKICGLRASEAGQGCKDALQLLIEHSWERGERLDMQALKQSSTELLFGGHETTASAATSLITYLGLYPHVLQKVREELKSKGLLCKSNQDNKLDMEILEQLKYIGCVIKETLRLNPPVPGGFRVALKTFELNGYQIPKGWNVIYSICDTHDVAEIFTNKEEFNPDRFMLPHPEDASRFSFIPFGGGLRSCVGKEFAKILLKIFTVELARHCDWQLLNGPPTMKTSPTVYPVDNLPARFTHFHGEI
# test_details: Inhibition of CYP26A1 in human MCF7 cell microsomes using [3H]ATRA after 1 hr by scintillation counting
pIC50: −log10 of the molar value.
Recorded pIC50 determines the group label, using bucket A: < 7; bucket B: ≥ 7 and < 8; bucket C: ≥ 8

COC(=O)[C@@H](C)[C@H](c1ccc(Nc2ccccc2)cc1)n1ccnc1 (relative stereo): bucket B
COC(=O)[C@H](C)[C@H](c1ccc(Nc2ccc3ccccc3c2)cc1)n1ccnc1 (relative stereo): bucket B
COC(=O)[C@H](C)[C@H](c1ccc(Nc2ccccc2)cc1)n1ccnc1 (relative stereo): bucket B
COC(=O)C(C)(C)C(c1ccc(Oc2ccc3ccccc3c2)cc1)n1ccnc1 (configuration not stated): bucket A
COC(=O)C(C)(C)C(c1ccc(Nc2ccc3ccccc3c2)cc1)n1ccnc1 (configuration not stated): bucket C
COC(=O)C(C)(C)C(c1ccc(Cc2ccc3ccccc3c2)cc1)n1ccnc1 (configuration not stated): bucket A
COC(=O)C(C)(C)C(c1ccc(Nc2ccc3cc(O)ccc3c2)cc1)n1ccnc1 (configuration not stated): bucket C
COC(=O)C(C)(C)C(c1ccc(Nc2ccc(-c3ccccc3)cc2)cc1)n1ccnc1 (configuration not stated): bucket A

---

inhibition at 0.4 µM for assorted compounds
# target_or_test_system: CYP2C9 (Homo sapiens)
# Sequence (P11712 whole entry): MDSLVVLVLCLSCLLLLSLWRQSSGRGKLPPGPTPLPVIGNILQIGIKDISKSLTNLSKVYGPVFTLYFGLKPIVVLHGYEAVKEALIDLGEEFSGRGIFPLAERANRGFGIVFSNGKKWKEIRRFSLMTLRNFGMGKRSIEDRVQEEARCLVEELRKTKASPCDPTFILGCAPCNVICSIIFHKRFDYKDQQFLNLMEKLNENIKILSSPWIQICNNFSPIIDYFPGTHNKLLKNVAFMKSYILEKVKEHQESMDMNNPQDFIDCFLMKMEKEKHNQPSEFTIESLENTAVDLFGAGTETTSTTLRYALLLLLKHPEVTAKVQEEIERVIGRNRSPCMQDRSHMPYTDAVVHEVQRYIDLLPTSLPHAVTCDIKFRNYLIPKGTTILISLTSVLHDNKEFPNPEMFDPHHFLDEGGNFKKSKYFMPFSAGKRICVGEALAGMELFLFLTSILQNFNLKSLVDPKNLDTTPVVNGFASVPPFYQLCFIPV
# test_details: Inhibition of CYP2C9 in human liver microsomes at 0.4 uM
# Type: ADME, Microsome
readout_type: inhibition at 0.4 µM (%)

COC(=O)C(C)(C)C(c1ccc(Nc2ccc3ccccc3c2)cc1)n1ccnc1 (centres undefined): 41
COC(=O)C(C)(C)C(c1ccc(Nc2nc3ccccc3o2)cc1)n1ccnc1 (centres undefined): 45
COC(=O)C(C)(C)C(c1ccc(Nc2cccc3ccccc23)cc1)n1ccnc1 (centres undefined): 48
COC(=O)C(C)(C)C(c1ccc(Nc2nc3ccccc3s2)cc1)n1ccnc1 (centres undefined): 87

---

inhibition at 0.4 µM for assorted compounds
# target_or_test_system: CYP2C19 (Homo sapiens)
# Sequence (P33261 whole entry): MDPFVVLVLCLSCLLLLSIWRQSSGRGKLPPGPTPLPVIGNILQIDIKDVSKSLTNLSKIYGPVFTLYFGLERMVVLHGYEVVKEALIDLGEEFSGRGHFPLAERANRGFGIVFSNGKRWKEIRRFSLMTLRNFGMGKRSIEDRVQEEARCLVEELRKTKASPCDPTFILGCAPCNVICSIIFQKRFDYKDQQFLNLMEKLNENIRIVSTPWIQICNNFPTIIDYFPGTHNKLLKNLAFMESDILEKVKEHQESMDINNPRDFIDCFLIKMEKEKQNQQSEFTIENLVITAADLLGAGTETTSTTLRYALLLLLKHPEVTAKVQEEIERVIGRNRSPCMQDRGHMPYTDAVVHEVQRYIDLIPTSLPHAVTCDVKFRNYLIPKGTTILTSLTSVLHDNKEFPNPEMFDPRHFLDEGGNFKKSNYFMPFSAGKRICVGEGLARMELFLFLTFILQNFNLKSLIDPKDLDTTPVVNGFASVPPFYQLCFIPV
# test_details: Inhibition of CYP2C19 in human liver microsomes at 0.4 uM
# Assay type: ADME, Microsome
readout_type: inhibition at 0.4 µM (%)

COC(=O)C(C)(C)C(c1ccc(Nc2nc3ccccc3o2)cc1)n1ccnc1 (centres undefined): 13
COC(=O)C(C)(C)C(c1ccc(Nc2cccc3ccccc23)cc1)n1ccnc1 (centres undefined): 49
COC(=O)C(C)(C)C(c1ccc(Nc2nc3ccccc3s2)cc1)n1ccnc1 (centres undefined): 91
COC(=O)C(C)(C)C(c1ccc(Nc2ccc3ccccc3c2)cc1)n1ccnc1 (centres undefined): 11

---

# target_or_test_system: CYP1A2 (Homo sapiens, UniProt P05177)
# test_details: Inhibition of CYP1A2 in human liver microsomes at 0.4 uM
# Assay type: ADME, Microsome
inhibition at 0.4 µM for assorted compounds
readout_type: inhibition at 0.4 µM (%)

COC(=O)C(C)(C)C(c1ccc(Nc2nc3ccccc3o2)cc1)n1ccnc1 (centres undefined): 31
COC(=O)C(C)(C)C(c1ccc(Nc2nc3ccccc3s2)cc1)n1ccnc1 (centres undefined): 38
COC(=O)C(C)(C)C(c1ccc(Nc2ccc3ccccc3c2)cc1)n1ccnc1 (centres undefined): 21
COC(=O)C(C)(C)C(c1ccc(Nc2cccc3ccccc23)cc1)n1ccnc1 (centres undefined): 15

---

# target_or_test_system: UniProt:P05177
# Sequence (P05177 whole entry): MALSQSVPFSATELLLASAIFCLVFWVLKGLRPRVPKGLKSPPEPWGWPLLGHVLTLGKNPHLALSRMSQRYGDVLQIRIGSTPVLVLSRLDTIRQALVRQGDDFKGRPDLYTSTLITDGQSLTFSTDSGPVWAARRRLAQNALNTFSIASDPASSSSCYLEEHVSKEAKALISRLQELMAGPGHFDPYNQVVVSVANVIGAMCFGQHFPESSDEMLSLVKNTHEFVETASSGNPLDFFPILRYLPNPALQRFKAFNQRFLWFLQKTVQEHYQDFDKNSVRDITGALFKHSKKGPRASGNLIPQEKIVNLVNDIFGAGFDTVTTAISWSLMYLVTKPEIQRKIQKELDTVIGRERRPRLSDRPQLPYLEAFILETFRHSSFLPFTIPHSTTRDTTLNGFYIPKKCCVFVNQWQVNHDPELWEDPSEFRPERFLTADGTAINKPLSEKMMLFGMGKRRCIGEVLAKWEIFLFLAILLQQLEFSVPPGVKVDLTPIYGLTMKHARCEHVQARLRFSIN
pIC50: −log10 of the molar value.
pIC50 for assorted compounds
readout_type: pIC50

COC(=O)C(C)(C)C(c1ccc(Nc2ccc3ccccc3c2)cc1)n1ccnc1 (configuration not stated): 5.92
C[C@H]([C@@H](c1ccc(Nc2nc3ccccc3s2)cc1)n1ccnc1)N(C)C: 5.08

Reference source: ChEMBL document CHEMBL1764976
